systemUnderTest: Amine oxidase [flavin-containing] A (Homo sapiens)
Sequence (P21397 whole entry): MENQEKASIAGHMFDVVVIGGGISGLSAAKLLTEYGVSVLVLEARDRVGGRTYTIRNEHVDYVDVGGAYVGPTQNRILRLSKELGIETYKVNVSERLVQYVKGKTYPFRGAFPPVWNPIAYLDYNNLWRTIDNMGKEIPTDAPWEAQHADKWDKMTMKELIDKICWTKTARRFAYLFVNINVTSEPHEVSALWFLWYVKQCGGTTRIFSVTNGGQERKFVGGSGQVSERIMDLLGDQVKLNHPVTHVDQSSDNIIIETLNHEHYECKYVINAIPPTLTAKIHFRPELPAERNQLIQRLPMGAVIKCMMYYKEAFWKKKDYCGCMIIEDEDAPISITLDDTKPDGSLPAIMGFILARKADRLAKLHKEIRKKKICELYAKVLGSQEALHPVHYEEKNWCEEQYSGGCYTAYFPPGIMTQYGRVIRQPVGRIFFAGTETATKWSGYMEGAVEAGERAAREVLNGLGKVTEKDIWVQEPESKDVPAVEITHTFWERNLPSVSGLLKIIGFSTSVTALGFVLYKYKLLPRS
testName: Inhibition of human recombinant MAOA using kynuramine as substrate incubated for 10 mins by UPLC-ESI-MS/MS analysis
readoutType: IC50 (µM)

For orientation, consider the following solved cases.
INSERT INTO results (molsmiles, systemundertest, resultnumber) VALUES
  ('Cc1cc(-c2ccccc2)c(O)c2c1C[C@@H](C)OC2=O', 'Amine oxidase [flavin-containing] A (Homo sapiens)', 10.5),
  ('CC[C@@H]1Cc2c(C)cc(-c3cncnc3)c(O)c2C(=O)O1', 'Amine oxidase [flavin-containing] A (Homo sapiens)', 0.06),
  ('CCc1cc(C)c2c(c1O)C(=O)O[C@H](C)C2', 'Amine oxidase [flavin-containing] A (Homo sapiens)', 2.9);

A = Cc1cc(-c2cccc([N+](=O)[O-])c2)c(O)c2c1C[C@@H](C)OC2=O
B = COc1ccc(NCc2cc(C)c3c(c2O)C(=O)O[C@H](C)C3)cc1
Choose between A and B : whose measured IC50 value is numerically larger? Select an item and report its label. B
(B: 4.4 µM, A: 3 µM)

I = Cc1ccc(-c2cc(C)c3c(c2O)C(=O)O[C@H](C)C3)cc1
II = CC[C@@H]1Cc2c(C)ccc(O)c2C(=O)O1
Choose between I and II : whose measured IC50 value is numerically larger? Select an item and report its label. I
